MEASURED_ON: RNA-binding protein pos-1 (Caenorhabditis elegans)
Sequence (G5EF15 whole entry, the tested form may be a part): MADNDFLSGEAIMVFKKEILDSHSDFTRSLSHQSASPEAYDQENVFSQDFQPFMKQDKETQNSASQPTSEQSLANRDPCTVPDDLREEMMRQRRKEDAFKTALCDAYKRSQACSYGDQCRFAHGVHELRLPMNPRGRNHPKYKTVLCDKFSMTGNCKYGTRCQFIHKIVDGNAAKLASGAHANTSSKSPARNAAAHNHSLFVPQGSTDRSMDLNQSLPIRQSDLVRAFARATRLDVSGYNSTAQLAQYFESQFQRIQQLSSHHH
ASSAY_REMARKS: disruptors of C. elegans POS-1 RNA interaction – biochemical, fluorescence polarization, dose response (AID 1964);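 further: purified POS-1 fused to maltose binding protein made in E. coli; potency of compounds blocking POS-1 binding to fluorescent RNA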
Active and inactive are the calls of the source.
Reported EC50 values are given for each entry in this list.

Record excerpt, results attached:
>  <MOLECULE>
COc1cc2ccccc2cc1C(=O)NC(=S)Nc1cc(C(=O)O)ccc1C

>  <VALUE>
> 300 µM (not active)

$$$$
>  <MOLECULE>
CC1OC(Oc2c(-c3cc(O)c(O)c(O)c3)oc3cc(O)cc(O)c3c2=O)C(O)C(O)C1O (stereo not given)

>  <VALUE>
18 µM (active)

$$$$
>  <MOLECULE>
Cc1ccccc1N1C(=O)NC(=O)/C(=C\c2cc(C)n(C)c2C)C1=O

>  <VALUE>
> 300 µM (not active)

$$$$

Memo: CCN1C(=O)/C(=C2\SC(=S)N(NC(=O)c3ccccc3O)C2=O)c2ccccc21 , reported EC50: 7.47 µM (active)

Lab book: EC50 of COc1cc(C2C(C#N)=C(N)OC3=C2C(=O)CC(C)(C)C3)ccc1OCCN1CCOCC1 (stereo not given) noted as > 300 µM (not active)

* * *

Each entry below lists one item and its recorded EC50 value.
Tested on: H4
ASSAY_REMARKS: Luminescence Cell-Based Dose Response HTS to Identify Activators of 5'UTR Stem-Loop Driven Prion Protein mRNA Translation in H4 Neuroglioblastoma Cells. [Related pubchem assays: 1829 (Project Summary), 1814 (Primary HTS)]
Assay type: functional
REPORTED_CONDITIONS: Homo sapiens
Activity calls are given as the source filed them.

Worked examples, 4 compounds total:
>  <COMPOUND>
Clc1cnc(N/N=C/c2cccs2)c(Cl)c1

>  <EC50>
136 nM (active)

$$$$
>  <COMPOUND>
O=C(COC(=O)c1ccccc1[N+](=O)[O-])c1ccc2c(c1)OCO2

>  <EC50>
36000 nM (active)

$$$$
>  <COMPOUND>
CCC(=O)N1CCc2nc(-c3ccccc3)sc2C1

>  <EC50>
46300 nM (active)

$$$$
>  <COMPOUND>
Cc1cc(C(=O)CSc2nc3ccccc3o2)c(C)n1CC1CCCO1 (stereo not given)

>  <EC50>
< 100 nM (active)

$$$$

Next up:
get_value(item= COc1cccc(-n2cnc3sc(-c4ccccc4)cc3c2=O)c1 , readout=EC50) returns 136 nM (active)

* * *

MEASURED_ON: Cytochrome P450 2C19 (Homo sapiens)
Sequence (P33261 whole entry): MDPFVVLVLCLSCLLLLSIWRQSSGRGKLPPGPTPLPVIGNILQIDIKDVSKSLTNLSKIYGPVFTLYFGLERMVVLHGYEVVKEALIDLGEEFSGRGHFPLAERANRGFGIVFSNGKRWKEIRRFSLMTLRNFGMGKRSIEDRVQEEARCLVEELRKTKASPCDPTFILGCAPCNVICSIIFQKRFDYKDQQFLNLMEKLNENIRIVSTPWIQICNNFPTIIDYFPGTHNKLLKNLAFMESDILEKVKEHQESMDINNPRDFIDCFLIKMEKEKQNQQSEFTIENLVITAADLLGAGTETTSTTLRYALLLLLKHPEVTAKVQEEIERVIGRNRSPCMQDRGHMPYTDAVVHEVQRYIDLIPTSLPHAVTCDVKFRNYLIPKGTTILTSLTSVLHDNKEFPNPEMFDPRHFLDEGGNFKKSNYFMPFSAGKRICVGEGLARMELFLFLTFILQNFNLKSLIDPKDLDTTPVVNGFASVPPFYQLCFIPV
ASSAY_REMARKS: Cytochrome panel assay with activity outcomes. Panel member name: p450-cyp2c19 Compounds with AC50 equal or less than 10 uM are considered active
Assay type: functional
REPORTED_CONDITIONS: read-out: AC50
The following molecules are shown together with reported AC50 values.

# example entries with known answers
>  <MOLECULE>
COC(=O)c1c(NC(=O)Cn2cc([N+](=O)[O-])cn2)sc2c1CCC2

>  <AC50>
3.16 µM (inconclusive)

$$$$
>  <MOLECULE>
C/C(=N\NC(=O)C1CC1c1ccccc1)c1cccs1 (centres undefined)

>  <AC50>
2.24 µM (inconclusive)

$$$$
>  <MOLECULE>
COC(=O)c1c(-c2cc(OC)c(OC)c(OC)c2)c2ccc(OCc3ccccn3)cc2c(=O)n1-c1ccc(N)cc1

>  <AC50>
10 µM (inconclusive)

$$$$
>  <MOLECULE>
COc1ccc(C(=O)c2ccccc2)c(O)c1 [OXYBENZONE]

>  <AC50>
0.398 µM (inconclusive)

$$$$
>  <MOLECULE>
NC(=O)CC(c1ccccc1)c1ccco1 (centres undefined)

>  <AC50>
28.2 µM (inconclusive)

$$$$
>  <MOLECULE>
C=CCNc1nc(Cl)nc(Nc2ccc(OC)cc2)n1

>  <AC50>
0.224 µM (inconclusive)

$$$$

// assay Cytochrome P450 2C19 (Homo sapiens), entry COC(=O)[C@@]1(Cc2ccccc2)[C@H]2c3cc(C(=O)N4CCCC4)n(CCO)c3C[C@H]2CN1C(=O)c1ccccc1 , AC50 value = 0.00794 µM (inconclusive)

Cytochrome P450 2C19 (Homo sapiens) data for CO[C@@H]1COC(=O)C/C=C\[C@@H](C)[C@H](OC)COC(=O)[C@H](COCc2ccccc2)NC(=O)C/C=C\[C@H]1C ; its AC50: 2 µM (inconclusive)

Reported Cytochrome P450 2C19 (Homo sapiens) AC50 for item Cc1ccccc1N1C(=O)NC(=O)/C(=C/Nc2ccc(N(C)C)cc2)C1=O was 22.4 µM (inconclusive)

Every entry's value here was drawn from ChEMBL document CHEMBL1201862.
